Target: Human ALDH1A1 (Homo sapiens, UniProt P00352)
Construct: made in house
Test: Inhibition screening, single point at 10 μM, ALDH1A1
Type: biochemical
Conditions: 10 μM compound; 5 μM hexanal (Figure S1)
propertyName: remaining ALDH1A1 activity (%)

molecule | remaining ALDH1A1 activity / %
CCCN(CCC)c1ccc(C=O)cc1Br [Compound 14, 3-Bromo-4-(dipropylamino)benzaldehyde] | 45
CCCN(CCC)c1ccc(C=O)cc1 [Compound 1, 4-(Dipropylamino)benzaldehyde] | 12
CCN(CC)c1ccc(C=O)cc1Br [Compound 13, 3-Bromo-4-(diethylamino)benzaldehyde] | 24

a. O=Cc1ccc(N2CCCC2)c(Cl)c1 [Compound 12, 3-Chloro-4-(pyrrolidin-1-yl)benzaldehyde]
b. O=Cc1ccc(N2CCCC2)cc1 [Compound 4, 4-(Pyrrolidin-1-yl)benzaldehyde]
From the recorded data, which exceeds the other in remaining ALDH1A1 activity: a or b ? Kindly state the label of the option you pick.
a

---

Target: Human ALDH3A1 (Homo sapiens, UniProt P30838)
Construct: made in house
Sequence (P30838 whole entry): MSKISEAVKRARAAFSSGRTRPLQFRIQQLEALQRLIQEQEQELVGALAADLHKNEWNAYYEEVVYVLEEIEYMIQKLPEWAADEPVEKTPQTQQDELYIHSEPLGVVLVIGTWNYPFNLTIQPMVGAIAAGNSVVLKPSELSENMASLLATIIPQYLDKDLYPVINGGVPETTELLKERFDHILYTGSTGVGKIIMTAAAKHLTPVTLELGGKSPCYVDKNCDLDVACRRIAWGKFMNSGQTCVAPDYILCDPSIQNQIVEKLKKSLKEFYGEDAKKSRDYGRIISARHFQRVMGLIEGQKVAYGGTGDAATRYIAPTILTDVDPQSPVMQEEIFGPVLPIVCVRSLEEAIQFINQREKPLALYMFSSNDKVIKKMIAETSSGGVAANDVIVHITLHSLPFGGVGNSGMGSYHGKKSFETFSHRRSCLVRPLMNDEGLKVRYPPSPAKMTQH
Experiment: ALDH3A1 inhibition, IC50, Ki and type of inhibition
Assay type: biochemical
Details: 31 μM 4-NBA as substrate; mean ± SE
propertyName: IC50 (µM)

# count of solved cases: 3
molecule | obsValue
O=Cc1ccc(N2CCOCC2)c(Cl)c1 | 64.1
CCCN(CCC)c1ccc(C=O)cc1[N+](=O)[O-] | 1.61
CCCN(CCC)c1ccc(C=O)cc1Br | 8

1. CCN(CC)c1ccc(C=O)cc1 [DEAB, 4-(Diethylamino)benzaldehyde, reference compound]
2. CCN(CC)c1ccc(C=O)cc1[N+](=O)[O-]
Of 1 versus 2 , which is the one with smaller reported IC50? Kindly state the label of the option you pick.
2
(2: 1.29 µM, 1: 5.67 µM)

---

Sequence of the target: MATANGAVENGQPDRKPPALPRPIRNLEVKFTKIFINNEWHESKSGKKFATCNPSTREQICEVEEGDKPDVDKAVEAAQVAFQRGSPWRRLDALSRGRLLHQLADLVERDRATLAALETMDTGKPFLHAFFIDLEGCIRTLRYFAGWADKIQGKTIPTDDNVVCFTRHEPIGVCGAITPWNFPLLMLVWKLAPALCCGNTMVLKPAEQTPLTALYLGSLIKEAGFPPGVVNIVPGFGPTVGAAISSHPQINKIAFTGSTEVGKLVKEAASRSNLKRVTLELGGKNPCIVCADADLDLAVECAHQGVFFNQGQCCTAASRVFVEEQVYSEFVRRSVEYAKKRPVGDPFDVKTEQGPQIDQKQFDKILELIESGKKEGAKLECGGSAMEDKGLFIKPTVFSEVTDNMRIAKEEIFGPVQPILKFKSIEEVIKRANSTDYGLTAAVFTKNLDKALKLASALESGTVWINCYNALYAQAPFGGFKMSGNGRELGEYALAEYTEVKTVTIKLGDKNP
propertyName: IC50 (nM)

# count of solved cases: 3
compound | propertyName | obsValue
O=Cc1ccc(N2CCCC2)c([N+](=O)[O-])c1 [Compound 34, 3-Nitro-4-(pyrrolidin-1-yl)benzaldehyde] | IC50 | 270
CCCN(CCC)c1ccc(C=O)cc1Br [Compound 14, 3-Bromo-4-(dipropylamino)benzaldehyde] | IC50 | 630
Cc1cc(C=O)ccc1N1CCCCC1 [Compound 15, 3-Methyl-4-(piperidin-1-yl)benzaldehyde] | IC50 | 300

I. CCN(CC)c1ccc(C=O)cc1 [DEAB, 4-(Diethylamino)benzaldehyde, reference compound]
II. CC(C)Oc1ccc(C=O)cc1 [Compound 16, 4-Isopropoxybenzaldehyde]
III. COc1cc(C=O)ccc1N1CCCC1 [Compound 29]
Endpoint returns the given compounds ordered by ascending IC50. Would you mind listing the labels in the order requested?
II, III, I

---

Tested on: PC3, DU145 and LNCaP prostate cancer cell lines
Test: MTT chemosensitivity assay, panel of three prostate cancer cell lines
Type: cell-based
Conditions: Homo sapiens, 96 h exposure, read-out: IC50 against three prostate cancer cell lines
pIC50: −log10 of the molar value.
propertyName: pIC50

I'd like to know its pIC50. The compound in question is CCN(CC)c1ccc(C=O)cc1 [DEAB, 4-(Diethylamino)benzaldehyde, reference compound]
< 3.70

---

Biological target: Human ALDH3A1 (Homo sapiens, UniProt P30838)
Construct: made in house
Test: ALDH3A1 inhibition, IC50, Ki and type of inhibition
Type: biochemical
Conditions: measured at a saturating substrate concentration (4-NBA); mean ± SE
propertyName: IC50 (µM)
Quick reminder: number only, in µM, skip the unit.

I'd like to know its IC50. The compound in question is CCCN(CCC)c1ccc(C=O)cc1Cl [Compound 7, 3-Chloro-4-(dipropylamino)benzaldehyde]
13.7

---

Target: Human ALDH1A3 (Homo sapiens)
Construct: made in house
Assay: ALDH1A3 inhibition, IC50, Ki and type of inhibition
Format: biochemical
Details: hexanal as substrate; fit to competitive inhibition equation; mean ± SE
propertyName: pKi
Interpret pKi as the negative base-10 log of the concentration measured in mol/L.

I'd like to know its pKi. The molecule in question is CCCN(CCC)c1ccc(C=O)cc1Br [Compound 14, 3-Bromo-4-(dipropylamino)benzaldehyde]
6.34

---

Target: Human ALDH1A1 (Homo sapiens)
Construct: made in house
Sequence (P00352 1-501): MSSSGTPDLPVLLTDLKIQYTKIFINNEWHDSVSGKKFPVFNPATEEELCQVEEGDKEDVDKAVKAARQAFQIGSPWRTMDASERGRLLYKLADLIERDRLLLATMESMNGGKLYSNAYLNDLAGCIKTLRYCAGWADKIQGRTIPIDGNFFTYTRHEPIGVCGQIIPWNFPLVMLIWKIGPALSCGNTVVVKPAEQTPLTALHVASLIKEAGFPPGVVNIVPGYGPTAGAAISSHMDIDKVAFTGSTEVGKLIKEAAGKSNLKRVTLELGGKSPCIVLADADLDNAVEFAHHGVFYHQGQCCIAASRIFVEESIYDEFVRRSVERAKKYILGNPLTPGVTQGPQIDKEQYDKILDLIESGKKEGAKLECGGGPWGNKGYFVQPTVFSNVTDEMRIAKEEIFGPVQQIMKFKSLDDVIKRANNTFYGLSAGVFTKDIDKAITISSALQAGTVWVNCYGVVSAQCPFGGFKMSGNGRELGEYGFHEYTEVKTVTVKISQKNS
Test: ALDH1A1 inhibition, IC50 determination
Type: biochemical
Settings: 5 μM hexanal as substrate; mean ± SE
Below is a list of entries, each paired with its recorded pIC50 value.
Interpret pIC50 as the negative base-10 log of the concentration measured in mol/L.

// lookup pIC50 | system=Human ALDH1A1 (Homo sapiens) | key= CCCN(CCC)c1ccc(C=O)cc1Br
5.15

// lookup pIC50 | system=Human ALDH1A1 (Homo sapiens) | key= Cc1cc(C=O)ccc1N1CCCC1
6.10

---

Target: Human ALDH1A1 (Homo sapiens, UniProt P00352)
Construct: made in house
Assay: DEAB analogues as substrates of ALDH1A1
Type: biochemical
Details: 10 μM compound as substrate, relative to activity with 10 μM hexanal (Figure S2)
propertyName: ALDH1A1 substrate activity (%)

compoundSmiles | obsValue
CCCN(CCC)c1ccc(C=O)cc1[N+](=O)[O-] | 17

a. CCCN(CCC)c1ccc(C=O)cc1Cl
b. CCN(CC)c1ccc(C=O)cc1[N+](=O)[O-]
Of a versus b , which is the one with smaller reported ALDH1A1 substrate activity? Kindly state the label of the option you pick.
a
(a: 17.9%, b: 69%)

---

Test system: LNCaP
Experiment: MTT chemosensitivity assay, LNCaP
Type: cell-based, human
Conditions: Homo sapiens, LNCaP, 96 h exposure, ± SD, at least three independent experiments
propertyName: IC50 (µM)

compoundSmiles | unitsText | obsValue
CCCN(CCC)c1ccc(C=O)cc1 | µM | 73
O=Cc1ccc(N2CCCCC2)c(Br)c1 | µM | 46
Cc1cc(C=O)ccc1N1CCCCC1 | µM | 61
CCN(CC)c1ccc(C=O)cc1Br | µM | 47
CN1CCN(c2ccc(C=O)cc2Br)CC1 | µM | 179

1. CCCN(CCC)c1ccc(C=O)cc1Cl
2. O=Cc1ccc(N2CCCCC2)c(Cl)c1
Of 1 versus 2 , which is the one with smaller reported IC50? Kindly state the label of the option you pick.
1
(1: 10 µM, 2: 37 µM)

---

Tested on: PC3
Experiment: MTT chemosensitivity assay, PC3
Format: cell-based, human
Conditions: Homo sapiens, PC-3, 96 h exposure, ± SD, at least three independent experiments
propertyName: IC50 (µM)

# count of solved cases: 5
compoundSmiles | IC50 / µM
CCCN(CCC)c1ccc(C=O)cc1Br | 47
O=Cc1ccc(N2CCCCC2)c(Cl)c1 | 130
O=Cc1ccc(N2CCCCC2)c(Br)c1 | 84
Cc1cc(C=O)ccc1N1CCCCC1 | 123
O=Cc1ccc(-n2ccnc2)cc1 | 172

I. CCN(CC)c1ccc(C=O)cc1Br
II. CCCN(CCC)c1ccc(C=O)cc1[N+](=O)[O-]
Of I versus II , which is the one with smaller reported IC50? Kindly state the label of the option you pick.
II
(II: 98 µM, I: 166 µM)

A. O=Cc1ccc(N2CCOCC2)c(Br)c1
B. CCCN(CCC)c1ccc(C=O)cc1Cl
From the recorded data, which exceeds the other in IC50: A or B ? Kindly state the label of the option you pick.
A
(A: 196 µM, B: 77 µM)

These data points were gathered from paper PMC9007462.
